- TARGET OR SYSTEM: mouse glucagon receptor (mouse, UniProt Q61606 27-485)
- Sequence (Q61606 27-485): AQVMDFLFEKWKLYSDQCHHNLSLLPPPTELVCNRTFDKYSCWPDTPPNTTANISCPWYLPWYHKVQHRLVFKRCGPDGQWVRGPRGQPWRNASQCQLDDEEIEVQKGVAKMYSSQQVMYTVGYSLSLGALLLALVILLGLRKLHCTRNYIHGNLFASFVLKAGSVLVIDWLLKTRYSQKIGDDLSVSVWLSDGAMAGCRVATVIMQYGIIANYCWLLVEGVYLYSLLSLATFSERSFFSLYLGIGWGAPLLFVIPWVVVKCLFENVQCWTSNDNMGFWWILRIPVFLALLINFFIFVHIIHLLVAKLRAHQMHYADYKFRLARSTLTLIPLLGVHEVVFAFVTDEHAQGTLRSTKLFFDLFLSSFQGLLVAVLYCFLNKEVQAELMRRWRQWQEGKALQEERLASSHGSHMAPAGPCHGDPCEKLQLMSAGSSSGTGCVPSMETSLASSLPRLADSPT
- ASSAY: cell-based or functional assay
Collected cAMP EC50 (assay 2, 3.2% mouse serum albumin) values appear next to each entry.
Record the value in nM, omitting the unit from your answer.

Here are 3 binders together with their reported answers.
In [3]: df
Out[3]:
                                     binder  experimental_value
0  HSQGTFTSDKSKYLEGQAAKEFIAWLEKGR (X10 = K(gE-palm); C-terminal amide) [G812]               0.947
1  HSQGTFTSDKSSYLDSRRARDFVAWLEAGG (X10 = K(gE-palm); C-terminal amide) [G796]               0.034
2  HSQGTFTSDKSRYLDSRSARDFVAWLEAGG (X10 = K(gE-palm); C-terminal amide) [G849]               0.103

Prompt line: For HSQGTFTSDKSSYLDSRSARDFVAWLEAGG (X10 = K(gE-palm); C-terminal amide) [G865] , what is its reported cAMP EC50 (assay 2, 3.2% mouse serum albumin)?
Response line: 1.1
